- Target desc: full-length human PKCι (Homo sapiens, UniProt P41743)
- Construct: Recombinant, full-length human PKCι expressed in Sf21 insect cells is also commercially available
- Sequence (P41743 whole entry): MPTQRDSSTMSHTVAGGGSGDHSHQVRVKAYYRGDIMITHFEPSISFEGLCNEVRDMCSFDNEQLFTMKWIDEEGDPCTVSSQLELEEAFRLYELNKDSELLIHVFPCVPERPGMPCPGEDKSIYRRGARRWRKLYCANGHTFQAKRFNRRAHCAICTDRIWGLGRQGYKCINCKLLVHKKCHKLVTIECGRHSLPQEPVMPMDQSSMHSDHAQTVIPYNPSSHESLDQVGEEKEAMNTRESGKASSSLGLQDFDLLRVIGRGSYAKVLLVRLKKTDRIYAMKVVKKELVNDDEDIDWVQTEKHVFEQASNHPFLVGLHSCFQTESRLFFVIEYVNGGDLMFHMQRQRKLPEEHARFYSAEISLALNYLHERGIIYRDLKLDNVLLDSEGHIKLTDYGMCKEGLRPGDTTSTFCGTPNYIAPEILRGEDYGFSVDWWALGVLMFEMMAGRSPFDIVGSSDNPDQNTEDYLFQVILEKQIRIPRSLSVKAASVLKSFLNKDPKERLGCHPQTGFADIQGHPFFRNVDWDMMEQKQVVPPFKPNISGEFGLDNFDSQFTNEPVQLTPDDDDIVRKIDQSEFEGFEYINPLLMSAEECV
- Measurement description: PKCι IC50 IMAP assay, full-length PKCι at 150 μM ATP
- Conditions used: read-out: IC50 in IMAP assay against full length PKCi at 150 μM ATP
Would you kindly list IC50 for each of these compounds?

Item c1cc(-c2nc(N3CCNCC3)c3c(C4CC4)cncc3n2)cc(N[C@@H]2C[C@H]3CC[C@@H]2C3)n1 [Example 824] has what recorded IC50?
< 100 nM

If you can, please state the reported IC50 value of Fc1cc(F)c(F)c(Nc2cc(-c3nc(NC4CCNC4)c4c(C5CC5)cncc4n3)ccn2)n1 (stereo not shown) [Example 2021] .
< 100 nM

# input compound: N[C@H](CNc1nc(-c2ccncc2)nc2c(-c3ccc4[nH]cnc4c3)nccc12)Cc1ccccc1 [Example 116] ; wanted: its IC50
1000 to 10000 nM

Which IC50 reading was recorded for the compound O=C(O)Cc1ccc(Nc2cc(-c3nc(N4CCNCC4)c4c(C5CC5)cncc4n3)ccn2)cc1 [Example 709] ?
100 to 1000 nM

// provenance: patent US9914730B2
